Assay: Caco-2 monolayer transport (permeability) study
Type: in vitro ADME, human
Details: human, Caco-2, pH 7.4, Caco-2, donor concentrations 10–100 μM, KRB pH 7.4; read-out: Permeability coefficient (Papp), apical to basolateral
Method: Cell culture. For the maintenance culture, Caco-2 cells were incubated at 37 °C, 5% CO2, and 90% relative humidity in 75 cm^2 culture flasks with supplemented Dulbecco's Modified Eagle's Medium (DMEM). […] Fluorescein and rhodamine 123 samples (100 μL) were determined by fluorescence reading. […] The fluorescence intensity was recorded by exciting the sample with light at 485 nm and measuring the emitted fluorescence at 535 nm. […]
Recorded Endpoint: Papp A→B at 120 min

Tell me measured Papp A→B at 120 min for C[n+]1ccc(C(=O)NCc2ccccc2)cc1.[I-] [enisamium iodide] please.
0.2 to 0.3 ×10⁻⁶ cm/s

meta.source: paper PMC5874533
